# System: Huh-7
# Protocol description: Cytotoxicity against human HuH7 cells assessed as cell survival at 50 uM after 48 hrs by Hoechst 33342 staining based assay relative to control
# Type: functional
# Stated conditions: Huh-7, 48 h, read-out: Survival
Here the recorded viability at 50 µM is given for each entry.
Answer in %, number only, no unit symbol.

Qu. What value of measured viability at 50 µM is listed for COc1cc(OC)c(C(=O)/C=C/c2ccccc2SC)c(OC)c1 ?
Ans. 4

---

# Test system: Huh-7
# Protocol description: Cell cycle arrest in human HuH7 cells assessed as mitotic index at 25 uM measured after 48 hrs by Hoechst staining based fluorescence assay (reference value: 2.2)
# Assay type: functional
Some compounds, each annotated with its measured Activity_index.
No unit in the answer, only the number.

// solved cases for Activity_index follow
COc1cc(OC)c(C(=O)/C=C/c2ccc(Br)cc2)c(OC)c1
0.1
COc1cc(O)c(C(=O)/C=C/c2ccccc2)c(OC)c1
1.7
COc1cc(OC)c(C(=O)/C=C/c2ccc(F)cc2)c(OC)c1
1.3
COc1cccc(/C=C/C(=O)c2c(O)cc(OC)cc2OC)c1
0.1
COc1cc(O)c(C(=O)/C=C/c2ccccc2SC)c(OC)c1
5.3

Qu. Could you share which Activity_index value was measured for COc1cc(OC)c(C(=O)/C=C/c2ccccc2)c(OC)c1 ?
Ans. 0.6

Qu. Also, COc1cccc(/C=C/C(=O)c2c(OC)cc(OC)cc2OC)c1 please.
Ans. 1

Qu. What do we get for COc1cc(OC)c(C(=O)/C=C/c2ccccc2SC)c(OC)c1 ?
Ans. 0.4

---

# Test system: NCI-H727
# Protocol description: Cell cycle arrest in human NCI-H727 cells harboring p53 mutant assessed as mitotic index at 10 uM measured after 48 hrs by Hoechst staining based fluorescence assay (reference value: 1.1)
# Assay type: functional
Readout type: Activity_index
Please respond with just the number, no unit label.

Qu. GET /values?readout=Activity_index&item= COc1cccc(/C=C/C(=O)c2c(O)cc(OC)cc2OC)c1
Ans. 1.2

Qu. Try the molecule COc1cc(O)c(C(=O)/C=C/c2ccccc2)c(OC)c1
Ans. 0.8

Qu. How about this molecule: COc1cc(O)c(C(=O)/C=C/c2ccccc2OC)c(OC)c1
Ans. 1

Qu. // repeat for COc1cc(OC)c(C(=O)/C=C/c2ccccc2SC)c(OC)c1 and report
Ans. 1

Qu. Follow-up entry: COc1cc(OC)c(C(=O)/C=C/c2ccc(F)cc2)c(OC)c1
Ans. 1.1

Qu. Would you mind doing COc1cc(OC)c(C(=O)/C=C/c2ccccc2)c(OC)c1 as well?
Ans. 1.3

Qu. Check COc1cc(OC)c(C(=O)/C=C/c2ccc(Br)cc2)c(OC)c1 too.
Ans. 1

Qu. For COc1cc(O)c(C(=O)/C=C/c2ccccc2SC)c(OC)c1 then?
Ans. 0.9

Qu. Here is the next molecule: COc1cccc(/C=C/C(=O)c2c(OC)cc(OC)cc2OC)c1
Ans. 1.7

---

# System: MDA-MB-231
# Protocol description: Cell cycle arrest in human MDA-MB-231 cells harboring p53 mutant assessed as mitotic index at 25 uM measured after 48 hrs by Hoechst staining based fluorescence assay (reference value: 2.1)
# Assay type: functional
The source made the active and inactive calls. No cut-off for these calls is given here.
Readout type: Activity

COc1cc(O)c(C(=O)/C=C/c2ccccc2SC)c(OC)c1
inactive
Oc1cccc(-c2nc(N3CCOCC3)c3oc4ncccc4c3n2)c1 [PI-103]
inactive
COc1cc(O)c(C(=O)/C=C/c2ccccc2OC)c(OC)c1
inactive
COc1cc(O)c(C(=O)/C=C/c2ccc(F)cc2)c(OC)c1
inactive

Numbers sourced from ChEMBL document CHEMBL3992552.
